system: ragweed (common ragweed, Ambrosia elatior); assay: Test A preemergence, ragweed; assay type: in vivo; details: Ambrosia artemisiifolia, pre-emergence, 240 h; Preemergence, 500 g ai/ha; 0 to 100 scale (0 no effect, 100 complete control); read-out: Plant response rating, Ragweed
Property: pest or weed control at 500 g/ha (%)

[
  {
    "Query Smiles": "N#Cc1cccc(Oc2ncc(Cl)cn2)c1OCC(F)(F)C(F)(F)F",
    "Readout Value": 10
  },
  {
    "Query Smiles": "FC(F)C(F)(F)COc1c(Br)cccc1Oc1ncc(Cl)cn1",
    "Readout Value": 10
  },
  {
    "Query Smiles": "CCCCOc1c(C#N)cccc1Oc1ncc(Cl)cn1",
    "Readout Value": 30
  },
  {
    "Query Smiles": "CCCCOc1c(Br)cccc1Oc1ncc(Cl)cn1",
    "Readout Value": 10
  },
  {
    "Query Smiles": "Fc1cccc(Oc2ncc(Cl)cn2)c1OCC(F)(F)F",
    "Readout Value": 0
  }
]

* * *

tested on: sedge, umbrella (small-flower umbrella sedge, Cyperus difformis); test: Test B flooded paddy test, umbrella sedge; format: in vivo; conditions: 250 g ai/ha, Flood; visual rating after 13 to 15 days; scale 0 to 100, 0 is no effect, 100 is complete control

[
  {
    "Query Smiles": "N#Cc1cccc(Oc2ncc(Cl)cn2)c1OCCCC(F)(F)F",
    "Plant response rating, Sedge, Umbrella": 90
  },
  {
    "Query Smiles": "N#Cc1cccc(Oc2ncc(Cl)cn2)c1OCc1ccccc1Cl",
    "Plant response rating, Sedge, Umbrella": 0
  },
  {
    "Query Smiles": "CCC(=O)COc1c(C#N)cccc1Oc1ncc(Cl)cn1",
    "Plant response rating, Sedge, Umbrella": 0
  },
  {
    "Query Smiles": "FC(F)(F)CCCOc1c(Cl)cccc1Oc1ncc(Cl)cn1",
    "Plant response rating, Sedge, Umbrella": 100
  },
  {
    "Query Smiles": "FC(F)(F)CCCOc1c(I)cccc1Oc1ncc(Cl)cn1",
    "Plant response rating, Sedge, Umbrella": 95
  },
  {
    "Query Smiles": "Cc1cccc(Oc2ncc(Cl)cn2)c1OC/C=C/Cl",
    "Plant response rating, Sedge, Umbrella": 90
  },
  {
    "Query Smiles": "N#CCCCOc1c(C#N)cccc1Oc1ncc(Cl)cn1",
    "Plant response rating, Sedge, Umbrella": 0
  },
  {
    "Query Smiles": "O=C(COc1c(Br)cccc1Oc1ncc(Cl)cn1)C(F)(F)C(F)(F)F",
    "Plant response rating, Sedge, Umbrella": 0
  },
  {
    "Query Smiles": "N#Cc1cccc(Oc2ncc(Cl)cn2)c1OCc1cccc(Cl)c1",
    "Plant response rating, Sedge, Umbrella": 0
  },
  {
    "Query Smiles": "O=C(CCC(F)(F)F)COc1c(Br)cccc1Oc1ncc(Cl)cn1",
    "Plant response rating, Sedge, Umbrella": 75
  }
]

* * *

tested on: barnyardgrass (Echinochloa crus-galli); assay: Test A postemergence, barnyardgrass; assay type: in vivo; conditions: Echinochloa crus-galli, post-emergence, 240 h; 31 g ai/ha, postemergence; 0 to 100 scale, 0 is no effect, 100 is complete control; approximately 10 days; read-out: Plant response rating, Barnyardgrass
Property: pest or weed control at 31 g/ha (%)

[
  {
    "Query Smiles": "N#Cc1cccc(Oc2ncc(Cl)cn2)c1OCC(F)(F)F",
    "Property": "pest or weed control at 31 g/ha",
    "Readout Value": 0
  },
  {
    "Query Smiles": "N#Cc1cccc(Oc2ncc(Cl)cn2)c1OCCC(F)(F)F",
    "Property": "pest or weed control at 31 g/ha",
    "Readout Value": 50
  },
  {
    "Query Smiles": "N#Cc1cccc(Oc2ncc(Cl)cn2)c1OCCCC(F)(F)F",
    "Property": "pest or weed control at 31 g/ha",
    "Readout Value": 70
  },
  {
    "Query Smiles": "Cc1cccc(Oc2ncc(Cl)cn2)c1OCC(F)(F)F",
    "Property": "pest or weed control at 31 g/ha",
    "Readout Value": 0
  },
  {
    "Query Smiles": "FC(F)(F)COc1c(Cl)cccc1Oc1ncc(Cl)cn1",
    "Property": "pest or weed control at 31 g/ha",
    "Readout Value": 0
  },
  {
    "Query Smiles": "N#Cc1cccc(Oc2ncc(F)cn2)c1OCCCC(F)(F)F",
    "Property": "pest or weed control at 31 g/ha",
    "Readout Value": 20
  },
  {
    "Query Smiles": "FC(F)(F)COc1c(I)cccc1Oc1ncc(Cl)cn1",
    "Property": "pest or weed control at 31 g/ha",
    "Readout Value": 0
  },
  {
    "Query Smiles": "N#Cc1cccc(Oc2ncc(Cl)cn2)c1OC/C=C/C(F)(F)F",
    "Property": "pest or weed control at 31 g/ha",
    "Readout Value": 20
  },
  {
    "Query Smiles": "N#Cc1cccc(Oc2ncc(F)cn2)c1OCC(F)(F)F",
    "Property": "pest or weed control at 31 g/ha",
    "Readout Value": 0
  }
]

* * *

tested on: ducksalad (Heteranthera limosa); assay: Test B flooded paddy test, ducksalad; format: in vivo; conditions: 250 g ai/ha, Flood; visual rating after 13 to 15 days; scale 0 to 100, 0 is no effect, 100 is complete control

[
  {
    "Molecule": "FC(F)(F)CCCOc1c(Cl)cccc1Oc1ncc(Cl)cn1 [Compound 46]",
    "Plant response rating, Ducksalad": 98
  },
  {
    "Molecule": "N#Cc1cccc(Oc2ncc(Cl)cn2)c1OCCCCC(F)(F)F [Compound 32]",
    "Plant response rating, Ducksalad": 90
  },
  {
    "Molecule": "FC(F)(F)/C=C/COc1c(I)cccc1Oc1ncc(Cl)cn1 [Compound 61]",
    "Plant response rating, Ducksalad": 100
  },
  {
    "Molecule": "Cl/C=C/COc1c(Cl)cccc1Oc1ncc(Cl)cn1 [Compound 48]",
    "Plant response rating, Ducksalad": 70
  },
  {
    "Molecule": "CC(C)CCOc1c(Br)cccc1Oc1ncc(Cl)cn1 [Compound 12]",
    "Plant response rating, Ducksalad": 0
  },
  {
    "Molecule": "FC(F)COc1c(Br)cccc1Oc1ncc(Cl)cn1 [Compound 17]",
    "Plant response rating, Ducksalad": 85
  },
  {
    "Molecule": "FC(F)(F)CCOc1c(I)cccc1Oc1ncc(Cl)cn1 [Compound 69]",
    "Plant response rating, Ducksalad": 100
  },
  {
    "Molecule": "Cc1cccc(Oc2ncc(Cl)cn2)c1OCCCC#N [Compound 70]",
    "Plant response rating, Ducksalad": 70
  },
  {
    "Molecule": "N#Cc1cccc(Oc2ncc(Cl)cn2)c1OCC(F)(F)C(F)F [Compound 14]",
    "Plant response rating, Ducksalad": 0
  },
  {
    "Molecule": "O=C(CCC(F)(F)F)COc1c(Br)cccc1Oc1ncc(Cl)cn1 [Compound 56]",
    "Plant response rating, Ducksalad": 85
  },
  {
    "Molecule": "N#CCCCOc1c(I)cccc1Oc1ncc(Cl)cn1 [Compound 67]",
    "Plant response rating, Ducksalad": 100
  },
  {
    "Molecule": "FC(F)(F)CCOc1c(Cl)cccc1Oc1ncc(Cl)cn1 [Compound 43]",
    "Plant response rating, Ducksalad": 100
  },
  {
    "Molecule": "O=C(COc1c(Br)cccc1Oc1ncc(Cl)cn1)C(F)(F)C(F)(F)F [Compound 73]",
    "Plant response rating, Ducksalad": 0
  },
  {
    "Molecule": "FC(F)(F)C(F)(F)CCCOc1c(Br)cccc1Oc1ncc(Cl)cn1 [Compound 49]",
    "Plant response rating, Ducksalad": 0
  },
  {
    "Molecule": "Cc1cccc(Oc2ncc(Cl)cn2)c1OCCC(F)(F)F [Compound 64]",
    "Plant response rating, Ducksalad": 85
  },
  {
    "Molecule": "Cc1cccc(Oc2ncc(Cl)cn2)c1OC/C=C/C(F)(F)F [Compound 58]",
    "Plant response rating, Ducksalad": 100
  },
  {
    "Molecule": "N#CCCCOc1c(Cl)cccc1Oc1ncc(Cl)cn1 [Compound 45]",
    "Plant response rating, Ducksalad": 20
  },
  {
    "Molecule": "N#CCCCOc1c(F)cccc1Oc1ncc(Cl)cn1 [Compound 24]",
    "Plant response rating, Ducksalad": 30
  },
  {
    "Molecule": "FCCCOc1c(I)cccc1Oc1ncc(Cl)cn1 [Compound 66]",
    "Plant response rating, Ducksalad": 100
  },
  {
    "Molecule": "FC(F)C(F)(F)C(F)(F)C(F)(F)COc1c(Br)cccc1Oc1ncc(Cl)cn1 [Compound 53]",
    "Plant response rating, Ducksalad": 90
  },
  {
    "Molecule": "N#Cc1cccc(Oc2ncc(Cl)cn2)c1OCc1ccc(C(F)(F)F)cc1 [Compound 20]",
    "Plant response rating, Ducksalad": 0
  },
  {
    "Molecule": "N#Cc1cccc(Oc2ncc(Cl)cn2)c1OCC(=O)C(F)(F)C(F)(F)F [Compound 74]",
    "Plant response rating, Ducksalad": 0
  },
  {
    "Molecule": "Fc1cccc(Oc2ncc(Cl)cn2)c1OCCC(F)(F)F [Compound 29]",
    "Plant response rating, Ducksalad": 50
  },
  {
    "Molecule": "Cc1cccc(Oc2ncc(Cl)cn2)c1OCCCC(F)(F)F [Compound 55]",
    "Plant response rating, Ducksalad": 100
  },
  {
    "Molecule": "CC(COc1c(C#N)cccc1Oc1ncc(Cl)cn1)CC(F)(F)F (centres unmarked) [Compound 34]",
    "Plant response rating, Ducksalad": 40
  },
  {
    "Molecule": "FC(F)(F)CCCOc1c(I)cccc1Oc1ncc(Cl)cn1 [Compound 60]",
    "Plant response rating, Ducksalad": 100
  }
]
